assayedSystem: phosphorylation levels of ERK1/2 in AsPC-1 (homozygous KRAS-G12D) cells (Homo sapiens, UniProt P01116, G12D)
Sequence (P01116 1-186 G12D): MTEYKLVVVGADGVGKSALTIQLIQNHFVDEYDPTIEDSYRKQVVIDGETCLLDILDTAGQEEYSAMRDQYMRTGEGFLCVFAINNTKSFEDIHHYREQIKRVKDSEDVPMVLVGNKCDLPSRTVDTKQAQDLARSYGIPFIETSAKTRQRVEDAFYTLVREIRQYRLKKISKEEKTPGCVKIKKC
procedureDetails: Cellular phospho-ERK assay in AsPC-1 cells (Alpha Screen), assay medium without fetal bovine serum;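 also: signal taken as phospho-ERK over total ERK per well, both detected in one multiplex bead assay, EC50 from four-parameter logistic fit of dose-response curves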
experimentalSetup: phospho-ERK AlphaScreen, 18 h
*1 amine or outer side, *2 acyl side, *3 side chain or, on linkers, in order; H or OH if unused. Where a SMILES comes first, the peptide text is derived from it. Bridges are numbered along the chain shown (N, C = ends). [ ]: non-standard residue; d: D form. Phe(4-guanidino) = N=C(N)Nc1ccc(C[C@H](N)C(=O)O)cc1; X22 = CNC(=N)N(C)CCC[C@@H](C(=O)[*:2])N(C)[*:1]; Ala(pyrimidin-5-yl) = N[C@@H](Cc1cncnc1)C(=O)O; NMe3Pal(5-F) = CN[C@@H](Cc1cncc(F)c1)C(=O)O; X11 = CC(C)(F)CC[C@H](N[*:1])C(=O)[*:2]; Phe(2-F) = N[C@@H](Cc1ccccc1F)C(=O)O; Abu(4,4-F2) = N[C@@H](CC(F)F)C(=O)O; NMe3Pal = CN[C@@H](Cc1cccnc1)C(=O)O; X1 = O=C(C12CC(CN[*:1])(C1)C2)[*:2]; Ala(cPr) = N[C@@H](CC1CC1)C(=O)O; NMeF = CN[C@@H](Cc1ccccc1)C(=O)O; PhLac = O=C(O)[C@@H](O)Cc1ccccc1; 3Pal = N[C@@H](Cc1cccnc1)C(=O)O; Ahp(2) = CCCCC[C@H](N)C(=O)O; Cba = N[C@@H](CC1CCC1)C(=O)O; αMeC = C[C@](N)(CS)C(=O)O; NMeA = CN[C@@H](C)C(=O)O; Nle = CCCC[C@H](N)C(=O)O
Give measured EC50 for each item. Keep answers brief.

Q) For "CCCCC[C@@H]1NC(=O)[C@H](Cc2ccc(OC)cc2)NC(=O)[C@H](CC2CCC2)NC(=O)[C@H](Cc2ccc(=O)[nH]c2)NC(=O)[C@H](CCCNC(=N)N)NC(=O)[C@H](Cc2ccccc2)NC(=O)CSC[C@@](C)(C(N)=O)NC(=O)[C@H](Cc2ccccc2)N(C)C1=O" , what is its reported EC50?
A) > 50.8 µM

Q) // next record CCCC[C@@H]1NC(=O)[C@H](Cc2cccnc2)NC(=O)[C@H](C)N(C)C(=O)[C@H](Cc2ccccc2)OC(=O)C23CC(CNC(=O)[C@H](Cc4ccccc4)N(C)C(=O)[C@H](CCCC)NC(=O)[C@H](Cc4ccccc4F)NC1=O)(C2)C3 [compound 236] (cyclo([3Pal][Nle][Phe(2-F)][Nle][NMeF][X1][PhLac][NMeA]))
A) 1.44 µM

Q) // next record C[C@H]1C(=O)N[C@@H](Cc2cncnc2)C(=O)N[C@@H](CC2CC2)C(=O)N[C@@H](Cc2ccccc2F)C(=O)N[C@@H](CC(F)F)C(=O)N(C)[C@@H](Cc2ccccc2)C(=O)NCC23CC(C2)(C3)C(=O)O[C@@H](Cc2ccccc2)C(=O)N1C [compound 271] (cyclo([Ala(cPr)][Phe(2-F)][Abu(4,4-F2)][NMeF][X1][PhLac][NMeA][Ala(pyrimidin-5-yl)]))
A) 36.6 µM

Q) // next record C[C@H]1C(=O)N[C@@H](Cc2cccnc2)C(=O)N[C@@H](CC2CC2)C(=O)N[C@@H](Cc2ccccc2F)C(=O)N[C@@H](CCC(C)(C)F)C(=O)N(C)[C@@H](Cc2cncc(F)c2)C(=O)NCC23CC(C2)(C3)C(=O)O[C@@H](Cc2ccccc2)C(=O)N1C [compound 284] (cyclo([3Pal][Ala(cPr)][Phe(2-F)][X11][NMe3Pal(5-F)][X1][PhLac][NMeA]))
A) 4.59 µM

Q) // next record CCCCC[C@@H]1NC(=O)[C@H](Cc2ccc(OC)cc2)NC(=O)[C@H](CC2CCC2)NC(=O)[C@H](Cc2ccc(NC(=N)N)cc2)NC(=O)[C@H](CCCN(C)C(=N)NC)N(C)C(=O)[C@H](Cc2ccccc2)NC(=O)CSC[C@@](C)(C(N)=O)NC(=O)[C@H](Cc2ccccc2)N(C)C1=O [compound 381] ({CH2CO}-F[X22][Phe(4-guanidino)][Cba]Y(Me)[Ahp(2)][NMeF][αMeC]-NH2; thioether N-8)
A) > 50.8 µM

Q) // next record CCCC[C@@H]1NC(=O)[C@H](Cc2ccccc2F)NC(=O)[C@H](CC2CCC2)NC(=O)[C@H](Cc2cncnc2)NC(=O)[C@H](C)N(C)C(=O)[C@H](Cc2ccccc2)OC(=O)C23CC(CNC(=O)[C@H](Cc4cccnc4)N(C)C1=O)(C2)C3 [compound 125] (cyclo([Cba][Phe(2-F)][Nle][NMe3Pal][X1][PhLac][NMeA][Ala(pyrimidin-5-yl)]))
A) 45 µM
